// provenance: patent US20250250357A1

- TARGET DESC: T1, human MSLN-hFc protein (Acro, Cat. No. MSN-H5253) (human, UniProt Q13421 296-580)
- T1 construct: bought protein; also called human MSLN full-length protein; not shown: human Fc (hFc) of the bought protein
- T1 sequence (Q13421 other isoform, or with tags, fused parts or gaps limits assumed): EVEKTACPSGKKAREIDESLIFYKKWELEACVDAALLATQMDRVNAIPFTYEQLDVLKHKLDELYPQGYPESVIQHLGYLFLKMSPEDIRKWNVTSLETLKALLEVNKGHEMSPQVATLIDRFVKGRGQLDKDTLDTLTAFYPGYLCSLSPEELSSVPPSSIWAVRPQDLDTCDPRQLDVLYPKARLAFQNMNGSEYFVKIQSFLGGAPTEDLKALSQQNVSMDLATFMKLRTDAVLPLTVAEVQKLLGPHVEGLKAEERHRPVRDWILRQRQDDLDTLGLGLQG
- ASSAY COMMENT: ELISA, coated human MSLN-hFc, antibody 100 nM
Quick list: OD450 nm per entry.
API note: the answer field is a bare number with no unit suffix.

Please review the following examples before continuing.
F2.39.3-H5 (scFv, not shown: small tags and cut ends, also called S009-F2.39.3 humanized VH2 + VL1) scFv: EVQLVQSGAEVKKPGASVKVSCKASGYTFTNYWMHWVRQAPGQGLEWMGNINPSSGDSYYNERFMSRVTMTVDKSTSTAYMELSSLRSEDTAVYYCARSGGLWLAFWGQGTLVTVSSGGGGSGGGGSGGGGSDIVMTQSPDSLAVSLGERATINCKSSQTLLNSVSQNNYLAWYQQKPGQSPKLLIYFASTRESGVPDRFSGSGSGTDFTLTISSLQAEDVAVYYCQQHYRTPYTFGGGTKVEIK ... 1.87
F2.39.3-H1 (scFv, not shown: small tags and cut ends, expressed as VH-(G4S)3-VL-his or VL-(G4S)3-VH-his; also called S009-F2.39.3 humanized VH1 + VL1) scFv: EVQLVQSGAEVKKPGASVKVSCKASGYTFTNYWMHWVRQAPGQGLEWMGNINPSSGDSYYNERFMSRVTMTVDKSTSTVYMELSSLRSEDTAVYYCARSGGLWLAFWGQGTLVTVSSGGGGSGGGGSGGGGSDIVMTQSPDSLAVSLGERATINCKSSQTLLNSVSQNNYLAWYQQKPGQSPKLLIYFASTRESGVPDRFSGSGSGTDFTLTISSLQAEDVAVYYCQQHYRTPYTFGGGTKVEIK ... 1.68

Could you now look at the following binder, please?
Per the records, this binder ( F2.39.3-H8 (scFv, not shown: small tags and cut ends, also called S009-F2.39.3 humanized VH2 + VL4) scFv: EVQLVQSGAEVKKPGASVKVSCKASGYTFTNYWMHWVRQAPGQGLEWMGNINPSSGDSYYNERFMSRVTMTVDKSTSTAYMELSSLRSEDTAVYYCARSGGLWLAFWGQGTLVTVSSGGGGSGGGGSGGGGSDIVMTQTPLSLSVTPGQPASISCKSSQTLLNSVSQNNYLAWYQQKPGQSPTLLVYFASTRESGVPDRFSGSGSGTDFTLKISRVEAEDVGVYYCQQHYRTPYTFGGGTKVEIK ) has OD450 nm equal to 1.95
